# experimentalSystem: T1, factor VIIIa A1/A3C1C2 dimer, Glu1984Ala (human, UniProt P00451 20-391; P00451 1709-2351)
# T1 sequence 1: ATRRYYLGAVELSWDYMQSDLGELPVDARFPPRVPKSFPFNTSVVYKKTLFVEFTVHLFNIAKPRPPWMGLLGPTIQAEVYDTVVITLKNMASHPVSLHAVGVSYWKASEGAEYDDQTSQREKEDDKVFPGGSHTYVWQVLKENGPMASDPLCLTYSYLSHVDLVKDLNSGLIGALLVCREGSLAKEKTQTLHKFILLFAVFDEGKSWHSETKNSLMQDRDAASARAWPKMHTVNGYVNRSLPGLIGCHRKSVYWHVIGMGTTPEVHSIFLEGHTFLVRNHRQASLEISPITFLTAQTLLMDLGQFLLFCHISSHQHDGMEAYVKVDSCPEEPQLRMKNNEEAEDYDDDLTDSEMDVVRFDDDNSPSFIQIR
# T1 sequence 2: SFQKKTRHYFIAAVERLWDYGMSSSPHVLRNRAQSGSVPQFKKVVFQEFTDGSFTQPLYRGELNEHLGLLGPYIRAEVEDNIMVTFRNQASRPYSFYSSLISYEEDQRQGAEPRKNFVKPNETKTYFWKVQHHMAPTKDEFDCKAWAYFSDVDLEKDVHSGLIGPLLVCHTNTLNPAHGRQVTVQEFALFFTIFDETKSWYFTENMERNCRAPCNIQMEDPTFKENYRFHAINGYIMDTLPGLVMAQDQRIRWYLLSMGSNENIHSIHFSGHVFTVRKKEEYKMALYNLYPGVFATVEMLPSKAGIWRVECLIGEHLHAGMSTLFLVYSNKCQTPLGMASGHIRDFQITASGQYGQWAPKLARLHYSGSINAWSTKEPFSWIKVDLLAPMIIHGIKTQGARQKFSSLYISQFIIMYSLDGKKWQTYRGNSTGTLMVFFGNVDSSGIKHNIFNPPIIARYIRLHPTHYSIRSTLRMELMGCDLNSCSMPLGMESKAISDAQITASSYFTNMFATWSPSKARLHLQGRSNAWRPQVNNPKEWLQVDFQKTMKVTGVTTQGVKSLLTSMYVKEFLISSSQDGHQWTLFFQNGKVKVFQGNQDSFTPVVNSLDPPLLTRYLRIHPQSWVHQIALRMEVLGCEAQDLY
# assayProcedure: cell-based or functional assay
recordedMetric: Decay rate relative to wild type, Factor VIIIa (1.5 nM, factor IXa absent)

factor VIIIa A2 subunit, wild type (other) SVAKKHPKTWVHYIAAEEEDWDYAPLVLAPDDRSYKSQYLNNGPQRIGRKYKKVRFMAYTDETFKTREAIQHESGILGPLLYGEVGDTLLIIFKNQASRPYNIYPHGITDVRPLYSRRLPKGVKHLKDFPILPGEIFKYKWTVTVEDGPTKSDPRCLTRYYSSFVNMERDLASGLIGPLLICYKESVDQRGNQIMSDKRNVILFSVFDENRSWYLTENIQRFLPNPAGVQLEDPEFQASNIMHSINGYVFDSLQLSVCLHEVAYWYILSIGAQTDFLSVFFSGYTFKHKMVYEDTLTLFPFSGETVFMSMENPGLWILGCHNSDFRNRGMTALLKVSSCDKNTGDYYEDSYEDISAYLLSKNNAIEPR	0.41 relative to wild type

// next item, Decay rate relative to wild type, Factor VIIIa (1.5 nM, factor IXa absent) requested
Per the records, this binder ( factor VIIIa A2 subunit, Asp519Val (other) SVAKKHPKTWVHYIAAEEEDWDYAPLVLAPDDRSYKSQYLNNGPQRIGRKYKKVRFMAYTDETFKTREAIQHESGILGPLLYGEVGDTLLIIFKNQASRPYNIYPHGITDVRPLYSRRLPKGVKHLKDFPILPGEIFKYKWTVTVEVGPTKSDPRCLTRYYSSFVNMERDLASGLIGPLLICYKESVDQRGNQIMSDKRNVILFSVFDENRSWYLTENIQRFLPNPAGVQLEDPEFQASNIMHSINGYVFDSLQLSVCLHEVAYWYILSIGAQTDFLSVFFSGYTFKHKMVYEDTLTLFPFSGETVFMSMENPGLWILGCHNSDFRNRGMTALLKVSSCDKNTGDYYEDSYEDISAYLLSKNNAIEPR ) has Decay rate relative to wild type, Factor VIIIa (1.5 nM, factor IXa absent) equal to 0.12 relative to wild type
